- System: MCF7
- test_description: Antiproliferative activity against human MCF7 cells assessed as growth inhibition after 72 hrs by MTT assay
- applied_conditions: MCF7, 72 h
pIC50: −log10 of the molar value.
measured_property: pIC50

In [3]: df
Out[3]:
                                    compound  comparison_operator  recorded_number
 0  O=C(O)c1cn(CC(O)CN2CCCC2)c2ccccc12 (racemic)                    <             5.00
 1  O=C(O)CCc1cn(CC(O)CN2CCCCC2)c2ccccc12 (racemic)                    =             5.06
 2                  CC1=CC(=O)C(C(C)C)=CC1=O                    =             5.21
 3  O=C(O)Cc1cn(CC(O)CN2CCOCC2)c2ccccc12 (racemic)                    <             5.00
 4  CCN(CC)CC(O)Cn1cc(CC(=O)O)c2ccccc21 (racemic)                    =             5.50
 5  O=C(O)CCc1cn(CC(O)CN2CCCC2)c2ccccc12 (racemic)                    <             5.00
 6  O=C(O)Cc1cn(CC(O)CN2CCCC2)c2ccccc12 (racemic)                    =             5.94
 7  CN1CCN(CC(O)Cn2cc(C(=O)O)c3ccccc32)CC1 (racemic)                    <             5.00
 8  CN1CCN(CC(O)Cn2cc(CC(=O)O)c3ccccc32)CC1 (racemic)                    =             5.61
 9  CCN(CC)CC(O)Cn1cc(C(=O)O)c2ccccc21 (racemic)                    =             5.36
10  O=C(O)Cc1cn(CC(O)CN2CCCCC2)c2ccccc12 (racemic)                    =             5.72
11  O=C(O)c1cn(CC(O)CN2CCCCC2)c2ccccc12 (racemic)                    =             5.27

###

- assayed_system: Serine/threonine-protein kinase PLK2 (Homo sapiens)
- Sequence (Q9NYY3 whole entry): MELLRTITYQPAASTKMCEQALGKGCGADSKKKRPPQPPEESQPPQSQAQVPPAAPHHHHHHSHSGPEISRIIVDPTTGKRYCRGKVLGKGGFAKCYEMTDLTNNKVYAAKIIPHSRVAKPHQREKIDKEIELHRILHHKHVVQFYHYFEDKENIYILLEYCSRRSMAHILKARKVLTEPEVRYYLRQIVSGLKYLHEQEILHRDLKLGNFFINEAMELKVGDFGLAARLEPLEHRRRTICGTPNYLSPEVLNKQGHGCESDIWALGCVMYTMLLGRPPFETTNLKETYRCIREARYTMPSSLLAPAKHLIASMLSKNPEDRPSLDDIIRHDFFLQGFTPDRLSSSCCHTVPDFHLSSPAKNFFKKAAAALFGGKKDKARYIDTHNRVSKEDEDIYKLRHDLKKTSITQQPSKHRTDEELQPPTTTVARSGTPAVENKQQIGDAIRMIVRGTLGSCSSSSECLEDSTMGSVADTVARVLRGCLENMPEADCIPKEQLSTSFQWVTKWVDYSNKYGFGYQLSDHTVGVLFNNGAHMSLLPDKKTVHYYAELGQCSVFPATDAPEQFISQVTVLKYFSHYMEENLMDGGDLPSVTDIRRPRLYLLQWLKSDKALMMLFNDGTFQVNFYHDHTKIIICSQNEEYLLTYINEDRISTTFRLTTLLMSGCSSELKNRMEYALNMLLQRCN
- test_description: Inhibition of recombinant Plk2 (unknown origin)
# IC50 annotations
measured_property: IC50 (µM)

                                   compound                            assayed_system  measured_property  comparison_operator  recorded_number
0  O=C(O)Cc1cn(CC(O)CN2CCCC2)c2ccccc12 (racemic)  Serine/threonine-protein kinase PLK2 (Homo sapiens)               IC50                    >               50
1   CC1=CC(=O)C(C(C)C)=CC1=O [THYMOQUINONE]  Serine/threonine-protein kinase PLK2 (Homo sapiens)               IC50                    =             14.7

The reported numbers originate from ChEMBL document CHEMBL3392993.
